Could you please report measured Tmax for the items listed next?
Assay Text: Dog 28-day toxicokinetics
Format: in vivo
Measurement Parameters: both sexes, beagle, plasma, po, 200 mg/kg/day, 200 mg/kg/day po, day 1
Give bare numbers, in h.

The cases that follow already have their Tmax on record.
compound="CSc1ccc(OCc2ncc([N+](=O)[O-])n2C)cc1 [Fexinidazole]" numeric_value=1
compound="Cn1c([N+](=O)[O-])cnc1COc1ccc(S(C)(=O)=O)cc1 [Fexinidazole sulfone]" numeric_value=12.7

Please find the next compound below.
Lookup: Note down Tmax recorded for Cn1c([N+](=O)[O-])cnc1COc1ccc([S+](C)[O-])cc1 (stereo not drawn) [Fexinidazole sulfoxide]
Found: 1.25

These measurements were taken from paper PMC3006138.
